system: Enterococcus sp.; assay: in vitro antibacterial evaluation, MIC by broth dilution; assay type: cell-based; details: broth dilution, 18 hours at 35° C.; strain GC 4554
readout kind: MIC Enterococcus faecalis (GC 4554) (µg/mL)
Report as a plain number; the unit µg/mL is understood.

Ask | Reported MIC Enterococcus faecalis (GC 4554) for CC(C)=CCCC1OCC2OC(OC3C(CO)OC(Oc4ccc(CC5NC(=O)C(C(C)c6ccccc6)NC(=O)CNC(=O)C(CO)NC(=O)C(C(O)C6CNC(=N)N6C6OC(CO)C(O)C(O)C6O)NC(=O)C(C(O)C6CNC(=N)N6)NC5=O)cc4)C(O)C3O)C(O)C(O)C2O1 (centres unmarked) [Example 123] : what is it?
Reply | 16
